The reported numbers originate from PubChem BioAssay (NCI).

Please go through the items and note down their growth.
- System: NCI-H460 lung
- assay: NCI-60 one-dose screen, 48 h (100 = growth as untreated, 0 = no growth, -100 = all killed)
- measurementSetup: 10 µM unless noted
About 83,000 compounds went through this panel and 20% of them were active in at least one assay; those are over-represented in the sample as a whole.
Give a bare numeral; the unit % is implied.

Observed growth on NCI-H460 lung, entry COC(=O)c1cc(N=C2NC(=O)/C(=C/C=C/c3ccccc3)S2)ccc1O , equals 12.1

Observed growth on NCI-H460 lung, entry COC(=O)Nc1nc2ccc(S(=O)c3ccccc3)cc2[nH]1 (centres undefined) , equals 60.3

Observed growth on NCI-H460 lung, entry Cn1cc(-c2csc(-c3c[nH]c4ccccc34)n2)c2cnccc21 , equals -17.7

Observed growth on NCI-H460 lung, entry O=C(/C=C/c1ccco1)Nc1ncc(Cc2cccc(C(F)(F)F)c2)s1 , equals -0.329

Observed growth on NCI-H460 lung, entry C=C1C(=O)O[C@H]2[C@H]1CC/C(COC(=O)C(=O)c1cn(C)c3ccc(Cl)cc13)=C\CC[C@@]1(C)O[C@@H]21 , equals -69.8

Observed growth on NCI-H460 lung, entry CCOC(=O)c1cc2c(n1Cc1cc(OC)c(OC)c(OC)c1)-c1nc(N)sc1CCC2 , equals 31.9

Observed growth on NCI-H460 lung, entry C=CC(=O)N1CCN(c2cccc(Oc3nccc(Nc4nnc(-c5ccc(Br)cc5)s4)n3)c2)CC1 , equals 25.6

Observed growth on NCI-H460 lung, entry CC(C)(Sc1cc(C(C)(C)C)c(O)c(C(C)(C)C)c1)Sc1cc(C(C)(C)C)c(OC(=O)CCCC(=O)O)c(C(C)(C)C)c1 , equals 37

Observed growth on NCI-H460 lung, entry O=C(Nc1ccc(Oc2cccc(Cl)c2)c(Cl)c1)c1cccnc1 , equals 22.2
